- TARGET OF ASSAY: KPC-2 β-lactamase (purified) (UniProt Q9F663 30-293)
- Sequence (Q9F663 30-293): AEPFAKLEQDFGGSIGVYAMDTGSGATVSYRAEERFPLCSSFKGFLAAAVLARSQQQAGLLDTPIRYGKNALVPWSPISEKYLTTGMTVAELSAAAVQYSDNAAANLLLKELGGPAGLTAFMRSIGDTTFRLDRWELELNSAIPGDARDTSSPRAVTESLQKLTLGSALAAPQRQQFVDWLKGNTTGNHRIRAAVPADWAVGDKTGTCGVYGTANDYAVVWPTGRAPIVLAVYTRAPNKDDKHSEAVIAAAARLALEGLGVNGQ
- TEST PROTOCOL: cell-based or functional assay
PARAMETER: ampicillin MIC of E. coli TP142 (chromosomal blaKPC-2) carrying the BLIP plasmid

- BINDER: "BLIP E73K:R160G (natural protein) AGVMTGAKFTQIQFGMTRQQVLDIAGAENCETGGSFGDSIHCRGHAAGDYYAYATFGFTSAAADAKVDSKSQKKLLAPSAPTLTLAKFNQVTVGMTRAQVLATVGQGSCTTWSEYYPAYPSTAGVTLSLSCFDVDGYSSTGFYRGSAHLWFTDGVLQGKGQWDLV"
  OBS VALUE: "≤ 3 µg/mL"

Just for reference, paper PMC5656002 is where these values come from.
